These data points were gathered from paper doi:10.1101/2024.04.22.590616.

- test-target: T1, Csm2;Psy3;Shu1;Shu2 (Saccharomyces cerevisiae?;Saccharomyces …, UniProt P40465;Q12318;P38751;P38957 1-213;1-242;1-150;1-223, |||)
- T1 sequence 1: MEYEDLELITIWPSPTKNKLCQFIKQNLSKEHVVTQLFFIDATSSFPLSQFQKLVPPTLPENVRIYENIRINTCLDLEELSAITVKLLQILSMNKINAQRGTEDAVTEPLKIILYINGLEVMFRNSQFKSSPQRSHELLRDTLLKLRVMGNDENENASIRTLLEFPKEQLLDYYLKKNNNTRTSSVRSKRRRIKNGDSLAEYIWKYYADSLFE
- T1 sequence 2: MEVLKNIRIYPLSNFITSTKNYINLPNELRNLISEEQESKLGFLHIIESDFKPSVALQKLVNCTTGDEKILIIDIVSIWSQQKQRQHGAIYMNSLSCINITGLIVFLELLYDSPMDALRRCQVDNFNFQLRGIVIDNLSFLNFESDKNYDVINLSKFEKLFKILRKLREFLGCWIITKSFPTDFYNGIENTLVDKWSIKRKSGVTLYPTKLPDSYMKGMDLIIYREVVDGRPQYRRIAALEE
- T1 sequence 3: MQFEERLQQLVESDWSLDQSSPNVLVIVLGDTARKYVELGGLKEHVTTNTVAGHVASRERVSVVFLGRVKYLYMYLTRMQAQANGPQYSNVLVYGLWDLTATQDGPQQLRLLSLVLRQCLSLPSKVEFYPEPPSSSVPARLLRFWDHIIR
- T1 sequence 4: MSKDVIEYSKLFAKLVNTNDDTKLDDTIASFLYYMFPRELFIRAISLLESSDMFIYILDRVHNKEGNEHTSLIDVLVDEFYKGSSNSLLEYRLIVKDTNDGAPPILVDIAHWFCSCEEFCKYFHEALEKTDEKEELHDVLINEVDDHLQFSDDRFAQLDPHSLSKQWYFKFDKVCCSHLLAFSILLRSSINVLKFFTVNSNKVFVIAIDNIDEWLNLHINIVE
- assay-comment: fluorescence polarization
metric: Kd (µM)
// units = µM; emit number, no label

Asked: Consider the binder shown here: 3'-overhang (20nt) (dsDNA) DNA 1: CTTGACAAGCTTGCGCACT DNA 2: AGTGCGCAAGCTTGTCAAGGCACTTTTTTTTTTTTTTTT What is its recorded Kd?
Given back: 2.53

Asked: Form field: reported Kd of 5'-overhang (20nt) (dsDNA) DNA 1: TTTTTTTTTTTTTTTTTTTTCTTGACAAGCTTGCGCACT DNA 2: AGTGCGCAAGCTTGTCAAG
Given back: 1.58

Asked: May I ask what Kd has been recorded for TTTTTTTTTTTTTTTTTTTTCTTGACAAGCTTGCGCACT (ssDNA) [ss39] ?
Given back: 3.19

Asked: Which Kd is listed for Fork (20nt) (dsDNA) DNA 1: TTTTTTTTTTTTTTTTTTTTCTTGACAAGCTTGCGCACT DNA 2: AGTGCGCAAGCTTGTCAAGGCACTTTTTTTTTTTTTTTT ?
Given back: 0.86

Asked: Please look up its Kd: ss60 (ssDNA) DNA: TTTTTTTTTTTTTTTTTTTTTTTTTTTTTTCTTGACAAGCTTGCGCACTTAGGCCTCTAG
Given back: 2.4

Asked: Would you kindly share the measured Kd for ds39 (dsDNA) DNA 1: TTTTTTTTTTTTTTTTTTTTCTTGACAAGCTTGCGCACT DNA 2: AGTGCGCAAGCTTGTCAAGAAAAAAAAAAAAAAAAAAAA ?
Given back: 6.85
